Target: T1, human recombinant CD117 (c-Kit) from Sino Biological (Catalog No. 11996-H08H) (human, UniProt P10721 26-524)
T1 construct: also called soluble antigen
T1 sequence (P10721 26-524 limits assumed): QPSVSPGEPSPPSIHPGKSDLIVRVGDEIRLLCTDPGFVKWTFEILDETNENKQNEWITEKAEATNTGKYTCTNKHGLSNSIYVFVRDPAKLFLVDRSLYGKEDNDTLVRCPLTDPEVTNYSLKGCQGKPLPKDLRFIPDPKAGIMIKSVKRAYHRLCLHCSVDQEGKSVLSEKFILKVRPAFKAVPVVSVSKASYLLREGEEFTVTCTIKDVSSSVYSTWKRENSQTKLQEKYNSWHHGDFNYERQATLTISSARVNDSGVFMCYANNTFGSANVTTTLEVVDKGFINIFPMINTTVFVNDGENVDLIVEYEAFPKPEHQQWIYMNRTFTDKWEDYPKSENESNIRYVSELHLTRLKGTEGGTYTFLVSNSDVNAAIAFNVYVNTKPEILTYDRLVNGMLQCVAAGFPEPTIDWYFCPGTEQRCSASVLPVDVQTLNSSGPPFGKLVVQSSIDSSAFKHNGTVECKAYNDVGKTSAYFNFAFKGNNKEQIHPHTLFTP
Test: BLI Octet, IgG on anti-human Fc sensor, soluble CD117, 1:1 fit
Readings of kon for the listed binders
Report as a plain number; the unit M⁻¹ s⁻¹ is understood.

>>> assay_value("HC1 LC5 (antibody, V domains shown, IgG; also called VH1/VL5) VH: QVQLVQSGAEVKKPGASVKVSCKASGYTFTSYNMHWVRQAPGQGLEWMGVIYSGNGDTSYNQKFKGRVTMTTDTSTSTAYMELRSLTSDDTAVYYCARERDTRFGNWGQGTLVTVSA VL: DIQMTQSPSSLSASVGDRVTITCRASESVDIYGNAFMHWYQQKPGKAPKLLIYLASNLESGVPSRFSGSGSGTDFTLTISSLQPEDFATYYCQQANEEPYTFGGGTKLEIK")
628000

Now turn to the next binder.
In plain terms, Liskamm (antibody, V domains shown, IgG; also called VH5/VL1; HC5 LC1) VH: EVQLVQSGAEVKKPGESLKISCKGSGYTFTSYNMHWVRQMPGKGLEWMGVIYSGNADTSYNQKFKGQVTISADKSISTAYLQWSSLKASDTAMYYCARERDTRFGNWGQGTLVTVSA VL: EIVLTQSPSSLSASVGDRVTITCRASESVDIYGNSFMHWYQQKPGKAPKLLIYLASNLESGVPSRFSGSGSGTDFTLTISSLQPEDFATYYCQQNNEDPYTFGQGTKLEIK has a documented kon of 500000
